Entries with their measured IC50, system human norepinephrine transporter (NET) (Homo sapiens):
The response must be a number in nM with no trailing unit.

Recorded IC50, per entry:
Fc1ccc(C(c2ccc(F)cc2)N2CCC3(CCNCC3)C2)cc1: 1700
Fc1ccc(C(c2ccc(F)cc2)N2CC[C@]3(CNCCC3(F)F)C2)cc1 (single isomer, unassigned): 1070
Fc1ccc(C(c2ccc(F)cc2)N2CCC3(CCCNC3)C2)cc1 (stereo not shown): 5750
O=C1CCNC[C@]12CCN(C(c1ccc(F)cc1)c1ccc(F)cc1)C2 (single isomer, unassigned) [Example 8]: 1380
OC1CCNCC12CCN(C(c1ccc(F)cc1)c1ccc(F)cc1)C2 (stereo not shown): 4470
Fc1ccc(C(c2ccc(F)cc2)N2CCC3(CC2)CNCCS3)cc1: 2450
CN1CCC(O)C2(CCN(C(c3ccc(F)cc3)c3ccc(F)cc3)C2)C1 (stereo not shown): 18200
CN1CCCC2(CCN(C(c3ccc(F)cc3)c3ccc(F)cc3)C2)C1 (stereo not shown): 5010
ON=C1CCNCC12CCN(C(c1ccc(F)cc1)c1ccc(F)cc1)C2 (single isomer, unassigned): 6310
Clc1ccc(C(c2ccc(Cl)cc2)N2CCC3(CNCCO3)C2)cc1 (stereo not shown): 2400

Bench note: what IC50 did Fc1ccc(C(c2ccc(F)cc2)N2CCC3(CCNCC34OCCO4)C2)cc1 (stereo not shown) show? 2000

Now the same for Fc1ccc(C(c2ccc(F)cc2)N2CCC3(CC2)CNCCO3)cc1 2040

Now the same for CN1CCC(=O)C2(CCN(C(c3ccc(F)cc3)c3ccc(F)cc3)C2)C1 (stereo not shown) 22400

Now the same for O=C1CCNCC12CCN(C(c1ccc(F)cc1)c1ccc(F)cc1)C2 (stereo not shown) 3800

Now the same for Clc1ccc(C(c2ccc(Cl)cc2)N2CCC3(CCNCC3)C2)cc1 1230

###

- study target: human serotonin transporter (SERT) (Homo sapiens, UniProt P31645)
- Sequence (P31645 whole entry): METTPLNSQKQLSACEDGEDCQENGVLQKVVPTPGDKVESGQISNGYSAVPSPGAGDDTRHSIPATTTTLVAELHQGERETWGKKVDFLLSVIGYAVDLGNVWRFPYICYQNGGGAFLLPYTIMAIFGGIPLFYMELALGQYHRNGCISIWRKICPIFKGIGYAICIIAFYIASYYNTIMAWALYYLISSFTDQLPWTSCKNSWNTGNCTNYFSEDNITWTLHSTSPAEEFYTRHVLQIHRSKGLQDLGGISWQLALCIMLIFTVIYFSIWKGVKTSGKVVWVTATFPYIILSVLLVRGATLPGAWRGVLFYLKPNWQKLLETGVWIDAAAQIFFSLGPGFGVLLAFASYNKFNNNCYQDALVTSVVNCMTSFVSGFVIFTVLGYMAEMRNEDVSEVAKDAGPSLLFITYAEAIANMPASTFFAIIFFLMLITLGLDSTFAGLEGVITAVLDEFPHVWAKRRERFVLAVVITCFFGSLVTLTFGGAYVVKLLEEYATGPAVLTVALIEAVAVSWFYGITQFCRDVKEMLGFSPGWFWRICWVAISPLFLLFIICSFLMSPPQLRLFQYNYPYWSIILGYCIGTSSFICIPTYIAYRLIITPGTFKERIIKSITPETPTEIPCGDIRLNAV
Counter-ions that a name gives are not always drawn.
Overview of reported IC50 across a group of compounds:
The response must be a number in µM with no trailing unit.

Recorded IC50, per entry:
Fc1ccc(C(c2ccc(F)cc2)N2CC[C@]3(CNCCC3(F)F)C2)cc1 (single isomer, unassigned) [Example 17]: 13.2
O=C1CCNC[C@]12CCN(C(c1ccc(F)cc1)c1ccc(F)cc1)C2 (single isomer, unassigned) [Example 10, dihydrochloride salt]: 15.5

Please look at the following compound next.
Bench note: what IC50 did O[C@@H]1CCNC[C@@]12CCN(C(c1ccc(F)cc1)c1ccc(F)cc1)C2 (single isomer, unassigned) [Example 14] show? 22.4

###

- study target: human dopamine transporter (DAT) (Homo sapiens)
- Construct: expressed in transfected cells; host or cells: CHO (hDAT-CHO), membrane preparation
- Sequence (Q01959 whole entry): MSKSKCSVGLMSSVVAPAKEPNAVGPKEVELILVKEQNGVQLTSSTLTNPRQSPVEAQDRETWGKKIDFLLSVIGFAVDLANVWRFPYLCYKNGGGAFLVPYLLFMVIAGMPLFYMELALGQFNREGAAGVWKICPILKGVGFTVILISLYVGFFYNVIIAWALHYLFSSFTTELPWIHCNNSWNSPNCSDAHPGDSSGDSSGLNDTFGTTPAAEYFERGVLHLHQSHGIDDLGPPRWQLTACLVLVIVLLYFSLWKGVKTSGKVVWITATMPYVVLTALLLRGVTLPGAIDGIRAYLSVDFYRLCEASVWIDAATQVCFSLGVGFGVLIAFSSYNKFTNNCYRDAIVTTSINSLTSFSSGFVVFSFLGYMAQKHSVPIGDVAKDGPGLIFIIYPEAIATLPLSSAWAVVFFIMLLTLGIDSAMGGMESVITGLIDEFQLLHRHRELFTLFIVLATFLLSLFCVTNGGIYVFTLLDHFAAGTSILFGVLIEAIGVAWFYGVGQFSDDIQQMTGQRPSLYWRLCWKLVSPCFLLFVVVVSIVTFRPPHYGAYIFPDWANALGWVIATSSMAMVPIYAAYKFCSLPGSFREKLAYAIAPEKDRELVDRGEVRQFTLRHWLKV
- measurement description: Scintillation Proximity Assay (SPA) competition binding, [3H]WIN-35,428, hDAT-CHO membranes
- settings: pIC50 DAT
Overview of reported pIC50 across a group of compounds:
Entry type: numeric. Quantity: pIC50, the -log10 of concentration in molar units.

Recorded pIC50, per entry:
Fc1ccc(C(c2ccc(F)cc2)N2CCC3(CC2)CNCCS3)cc1 [Example 32]: 7.23
FC1=CCNC[C@]12CCN(C(c1ccc(F)cc1)c1ccc(F)cc1)C2 (single isomer, unassigned) [Example 18]: 7.52
Fc1ccc(C(c2ccc(F)cc2)N2CC[C@]3(CNCCC3(F)F)C2)cc1 (single isomer, unassigned) [Example 17]: 7.64
Fc1ccc(C(c2ccc(F)cc2)N2CCC3(CC2)CNCCO3)cc1 [Example 31]: 7.33
OC1CCNCC12CCN(C(c1ccc(F)cc1)c1ccc(F)cc1)C2 (stereo not shown) [Example 3]: 7.15
ON=C1CCNCC12CCN(C(c1ccc(F)cc1)c1ccc(F)cc1)C2 (single isomer, unassigned) [Example 16]: 7.31

Bench note: what pIC50 did Fc1ccc(C(c2ccc(F)cc2)N2CCC3(CCNCC34OCCO4)C2)cc1 (stereo not shown) [Example 20] show? 7.54
